Field: inhibition at 2 µM. Provide a value for each of the compounds that follow.
target: CYP17 (Homo sapiens); test: Inhibition of human recombinant CYP17 expressed in Escherichia coli at 2 uM using progesterone substrate; details: recombinant human CYP17 expressed in Escherichia coli, probe progesterone
Sequence (P05093 whole entry): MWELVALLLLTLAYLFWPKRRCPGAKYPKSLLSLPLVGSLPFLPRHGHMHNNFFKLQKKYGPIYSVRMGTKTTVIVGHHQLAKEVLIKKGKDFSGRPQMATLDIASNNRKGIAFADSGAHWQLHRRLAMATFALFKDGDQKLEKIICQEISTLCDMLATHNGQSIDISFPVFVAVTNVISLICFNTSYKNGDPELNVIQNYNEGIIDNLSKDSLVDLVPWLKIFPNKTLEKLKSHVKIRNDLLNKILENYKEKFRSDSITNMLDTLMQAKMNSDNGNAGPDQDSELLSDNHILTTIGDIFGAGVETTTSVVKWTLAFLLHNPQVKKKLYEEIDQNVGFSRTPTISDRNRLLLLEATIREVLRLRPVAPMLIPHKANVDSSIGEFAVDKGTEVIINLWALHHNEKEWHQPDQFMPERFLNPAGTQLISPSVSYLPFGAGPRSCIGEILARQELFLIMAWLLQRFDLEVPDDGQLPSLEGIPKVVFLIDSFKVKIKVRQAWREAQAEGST
Numbers only, in %.

These solved cases illustrate the format of a correct answer.
>  <compound.string>
c1ccc(-c2cc(Cn3ccnc3)cc(-c3ccccc3)c2)cc1

>  <inhibition at 2 µM (%)>
52

$$$$
>  <compound.string>
c1ccc(-c2ccc(Cn3ccnc3)s2)cc1

>  <inhibition at 2 µM (%)>
21

$$$$
>  <compound.string>
c1ccc(-c2ccc(Cn3ccnc3)o2)cc1

>  <inhibition at 2 µM (%)>
0

$$$$

The record that follows has no inhibition at 2 µM shown yet.
Could you please provide reported inhibition at 2 µM for `c1ccc(-c2ccc(Cn3ccnc3)cc2)cc1` ? Thanks!
40

###

Could you please report measured inhibition at 0.5 µM for the items listed next?
molecular target: CYP19 (aromatase) (Homo sapiens); test: Inhibition of human placental microsomes CYP19 at 500 nM using androstenedione substrate; details: human placental microsomes, probe androstenedione
Sequence (P11511 whole entry): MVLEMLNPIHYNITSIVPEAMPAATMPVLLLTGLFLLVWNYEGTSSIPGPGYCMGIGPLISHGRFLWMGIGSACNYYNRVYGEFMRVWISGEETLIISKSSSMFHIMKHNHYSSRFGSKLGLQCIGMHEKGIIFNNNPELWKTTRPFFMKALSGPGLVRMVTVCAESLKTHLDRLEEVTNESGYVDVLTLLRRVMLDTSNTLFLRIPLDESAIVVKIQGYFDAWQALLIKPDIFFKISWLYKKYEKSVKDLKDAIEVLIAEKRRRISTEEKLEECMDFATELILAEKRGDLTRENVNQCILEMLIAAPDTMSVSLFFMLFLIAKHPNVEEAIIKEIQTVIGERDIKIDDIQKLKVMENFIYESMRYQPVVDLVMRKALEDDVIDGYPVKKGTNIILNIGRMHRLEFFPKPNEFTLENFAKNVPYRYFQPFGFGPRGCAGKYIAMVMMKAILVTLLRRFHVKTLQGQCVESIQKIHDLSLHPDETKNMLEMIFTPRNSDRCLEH
Answers are plain numbers, in %.

Would you please look over these solved cases?
>  <compound.string>
c1ccc(-c2ccc(Cn3ccnc3)o2)cc1

>  <target.under.test>
CYP19 (aromatase) (Homo sapiens)

>  <units.of.measure>
%

>  <observed>
38

$$$$
>  <compound.string>
Cc1ccccc1Cn1ccnc1

>  <target.under.test>
CYP19 (aromatase) (Homo sapiens)

>  <units.of.measure>
%

>  <observed>
12

$$$$
>  <compound.string>
Cc1cccc(Cn2ccnc2)c1

>  <target.under.test>
CYP19 (aromatase) (Homo sapiens)

>  <units.of.measure>
%

>  <observed>
12

$$$$
>  <compound.string>
c1ccc2c(c1)ncn2CC12CC3CC(CC(C3)C1)C2

>  <target.under.test>
CYP19 (aromatase) (Homo sapiens)

>  <units.of.measure>
%

>  <observed>
12

$$$$
>  <compound.string>
c1ccc(-c2cccc(Cn3ccnc3)c2)cc1

>  <target.under.test>
CYP19 (aromatase) (Homo sapiens)

>  <units.of.measure>
%

>  <observed>
38

$$$$
>  <compound.string>
Cc1cc(C)cc(Cn2ccnc2)c1

>  <target.under.test>
CYP19 (aromatase) (Homo sapiens)

>  <units.of.measure>
%

>  <observed>
38

$$$$
>  <compound.string>
c1ccc(C(Cn2ccnc2)(c2ccccc2)c2ccccc2)cc1

>  <target.under.test>
CYP19 (aromatase) (Homo sapiens)

>  <units.of.measure>
%

>  <observed>
38

$$$$
>  <compound.string>
c1ccc(-c2ccccc2Cn2ccnc2)cc1

>  <target.under.test>
CYP19 (aromatase) (Homo sapiens)

>  <units.of.measure>
%

>  <observed>
38

$$$$

List inhibition at 0.5 µM for every entry below, keeping the order given.
1. Cc1c(C)c(C)c(Cn2ccnc2)c(C)c1C
2. c1ccc(C(CCn2ccnc2)(c2ccccc2)c2ccccc2)cc1
3. c1ccc(-c2ccc(Cn3ccnc3)cn2)cc1
4. c1ccc(-c2cc(Cn3ccnc3)cc(-c3ccccc3)c2)cc1
5. c1ccc(-c2ccc(Cn3ccnc3)s2)cc1

[12, 38, 0, 12, 12]

Please state, for each entry, its recorded inhibition at 0.5 µM.
1. c1cn(CC23CC4CC(CC(C4)C2)C3)cn1
2. c1ccc(-c2ccc(Cn3ccnc3)cc2)cc1
3. c1ccc(-c2csc(Cn3ccnc3)c2)cc1
4. c1ccc(C(c2ccccc2)(c2ccccc2)n2ccnc2)cc1

1: 12; 2: 5; 3: 72; 4: 38

###

target: UniProtKB P19099; assay: Inhibition of human CYP11B2 expressed in hamster V79MZ cells using 11-deoxycorticosterone substrate
outcome.measure: log10 IC50 (log10 of the value in nM)
Scale type: logarithmic (base 10). Underlying IC50 unit: nM.

Record log10 IC50 for all entries; do not skip any.
1. Cc1ccc(Cn2ccnc2)cc1
2. Cc1cccc(Cn2cnc3ccccc32)c1
3. CCOC(=O)c1cncn1[C@H](C)c1ccccc1 [ETOMIDATE]
4. c1ccc(-c2cc(Cn3ccnc3)cc(-c3ccccc3)c2)cc1
5. Cc1cccc(Cn2ccnc2)c1
6. c1ccc(-c2cccc(Cn3cnc4ccccc43)c2)cc1
7. Cc1cc(C)c(Cn2ccnc2)c(C)c1

[2.51, 2.49, -1.00, 2.52, 2.04, 3.35, 1.48]

Give log10 IC50 for each of the items listed below.
1. c1ccc(-c2ccc(Cn3ccnc3)s2)cc1
2. c1ccc(C(c2ccccc2)(c2ccccc2)n2ccnc2)cc1
3. c1ccc(Cn2ccnc2)cc1

2.55
1.04
2.66

The following compounds each have a reported value; give each one's log10 IC50.
1. c1ccc(-c2ccccc2Cn2ccnc2)cc1
2. c1ccc(C(CCn2ccnc2)(c2ccccc2)c2ccccc2)cc1
3. Clc1ccc(Cn2ccnc2)cc1
4. c1ccc(C(Cn2ccnc2)(c2ccccc2)c2ccccc2)cc1

1.59
2.46
1.66
0.90

Your task in this section: give log10 IC50 for each listed record.
1. Clc1ccc(Cn2cnc3ccccc32)cc1
2. Cc1ccccc1Cn1cnc2ccccc21
3. c1ccc(-c2ccc(Cn3ccnc3)o2)cc1
4. Cc1c(C)c(C)c(Cn2ccnc2)c(C)c1C
5. Cc1ccccc1Cn1ccnc1

1: 2.03; 2: 2.42; 3: 2.57; 4: 1.36; 5: 1.79

###

molecular target: Cytochrome P450 11B1, mitochondrial (Homo sapiens, UniProt P15538); assay: Inhibition of human CYP11B1 expressed in hamster V79MZ cells using 11-deoxycorticosterone substrate
Sequence (P15538 whole entry): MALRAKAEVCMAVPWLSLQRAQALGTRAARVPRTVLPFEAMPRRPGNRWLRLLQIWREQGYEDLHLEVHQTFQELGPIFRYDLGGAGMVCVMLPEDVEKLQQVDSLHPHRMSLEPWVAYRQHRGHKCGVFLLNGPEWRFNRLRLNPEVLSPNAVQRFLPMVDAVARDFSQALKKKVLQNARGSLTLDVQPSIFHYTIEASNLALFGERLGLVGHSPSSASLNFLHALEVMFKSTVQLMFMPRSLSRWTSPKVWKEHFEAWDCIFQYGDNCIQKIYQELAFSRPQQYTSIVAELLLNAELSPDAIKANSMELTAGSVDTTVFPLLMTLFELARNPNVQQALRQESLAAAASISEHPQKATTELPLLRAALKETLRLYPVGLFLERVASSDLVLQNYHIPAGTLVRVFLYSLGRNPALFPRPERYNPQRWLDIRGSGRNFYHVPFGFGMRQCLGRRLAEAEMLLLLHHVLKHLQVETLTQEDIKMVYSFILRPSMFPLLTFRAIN
Rule for this label: rule met means IC50 is less than 60 nM; rule not met means IC50 is at least 60 nM.

>  <compound.string>
Cc1cc(C)cc(Cn2ccnc2)c1

>  <qualitative.label>
rule met

$$$$

In plain terms, does `Cc1cccc(Cn2cnc3ccccc32)c1` come in under 60 nM for IC50?
rule not met

Lab note: IC50 threshold 60 nM. Does this molecule come in strictly under it? `c1ccc(C(Cn2cnc3ccccc32)(c2ccccc2)c2ccccc2)cc1`
rule not met

is_below(IC50, 60 nM) for `Clc1ccc(Cn2ccnc2)cc1` ?
rule not met

Threshold test, IC50 < 60 nM: `c1ccc(-c2ccc(Cn3ccnc3)s2)cc1`
rule met

Lab note: IC50 threshold 60 nM. Does this molecule come in strictly under it? `Cc1ccccc1Cn1cnc2ccccc21`
rule not met

###

target: Cytochrome P450 11B2, mitochondrial (Homo sapiens, UniProt P19099); assay: Inhibition of human CYP11B2 expressed in hamster V79MZ cells using 11-deoxycorticosterone substrate
Sequence (P19099 whole entry): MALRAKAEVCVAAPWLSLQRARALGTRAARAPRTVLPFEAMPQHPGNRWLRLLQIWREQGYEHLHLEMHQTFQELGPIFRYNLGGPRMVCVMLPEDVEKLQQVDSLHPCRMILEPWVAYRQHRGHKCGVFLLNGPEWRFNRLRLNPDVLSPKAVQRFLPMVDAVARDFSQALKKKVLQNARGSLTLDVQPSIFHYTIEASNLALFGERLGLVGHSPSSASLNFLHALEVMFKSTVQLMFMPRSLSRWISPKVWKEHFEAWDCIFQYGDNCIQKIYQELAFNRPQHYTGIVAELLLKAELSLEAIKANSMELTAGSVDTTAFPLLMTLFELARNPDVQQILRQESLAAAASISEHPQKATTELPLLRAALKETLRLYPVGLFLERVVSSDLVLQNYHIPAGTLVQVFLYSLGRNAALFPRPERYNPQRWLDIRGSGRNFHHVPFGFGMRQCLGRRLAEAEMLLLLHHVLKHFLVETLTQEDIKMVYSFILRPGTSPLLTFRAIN
outcome.measure: log10 IC50 (log10 of the value in µM)
In plain terms, each number is the log10 of measured IC50 in µM.

>  <compound.string>
c1ccc(-c2ccc(Cn3ccnc3)cc2)cc1

>  <target.under.test>
Cytochrome P450 11B2, mitochondrial (Homo sapiens, UniProt P19099)

>  <observed>
-0.20

$$$$
>  <compound.string>
c1cn(CC23CC4CC(CC(C4)C2)C3)cn1

>  <target.under.test>
Cytochrome P450 11B2, mitochondrial (Homo sapiens, UniProt P19099)

>  <observed>
-1.52

$$$$
>  <compound.string>
c1ccc(-c2cccc(Cn3ccnc3)c2)cc1

>  <target.under.test>
Cytochrome P450 11B2, mitochondrial (Homo sapiens, UniProt P19099)

>  <observed>
-0.58

$$$$

Give me log10 IC50 for each of these molecules, listed below.
1. c1ccc(-c2csc(Cn3ccnc3)c2)cc1
2. Cc1cc(C)cc(Cn2ccnc2)c1
3. Cc1cc(C)cc(Cn2cnc3ccccc32)c1

[-0.56, -1.11, -0.20]

###

species: Homo sapiens; assay: Selectivity index, ratio of IC50 for human CYP11B2 to IC50 for human CYP11B1
// thresholds for Ratio IC50 classes: low-valued (below 2), mid-valued (2 to below 4), high-valued (4 or more)

>  <compound.string>
Cc1cc(C)c(Cn2ccnc2)c(C)c1

>  <qualitative.label>
low-valued

$$$$

Class label required: `Cc1cc(C)cc(Cn2cnc3ccccc32)c1`
mid-valued

Given `c1ccc(-c2ccc(Cn3ccnc3)cn2)cc1` , name the class its Ratio IC50 places it in.
high-valued

# bin label for `c1ccc(-c2ccc(Cn3cnc4ccccc43)cc2)cc1`
high-valued

In plain terms, what class is `c1ccc(-c2ccc(Cn3ccnc3)cc2)cc1` ?
high-valued

###

target: Cytochrome P450 11B2, mitochondrial (Homo sapiens, UniProt P19099); assay: Inhibition of human CYP11B2 expressed in hamster V79MZ cells using 11-deoxycorticosterone substrate
pIC50: −log10 of the molar value.
outcome.measure: pIC50

Examples with their reported pIC50 follow.
>  <compound.string>
c1ccc(-c2ccccc2Cn2cnc3ccccc32)cc1

>  <pIC50>
< 6.00

$$$$
>  <compound.string>
c1ccc(C(c2ccccc2)(c2ccccc2)n2cnc3ccccc32)cc1

>  <pIC50>
< 6.00

$$$$
>  <compound.string>
c1ccc(C(Cn2cnc3ccccc32)(c2ccccc2)c2ccccc2)cc1

>  <pIC50>
< 6.00

$$$$
>  <compound.string>
c1ccc(-c2cc(Cn3cnc4ccccc43)cc(-c3ccccc3)c2)cc1

>  <pIC50>
< 6.00

$$$$
>  <compound.string>
Cc1c(C)c(C)c(Cn2cnc3ccccc32)c(C)c1C

>  <pIC50>
< 6.00

$$$$
>  <compound.string>
Cc1ccc(Cn2cnc3ccccc32)cc1

>  <pIC50>
6.28

$$$$

Respectfully, I request pIC50 for each entry included below.
1. c1ccc(Cn2cnc3ccccc32)cc1
2. c1ccc(-c2ccc(Cn3cnc4ccccc43)cc2)cc1

[6.06, 5.72]
